- test name: Stability of analytes in whole blood samples
- Format: in vitro ADME, rat
- condition details: Bench top (4 hours, room temperature), low concentration 1.9–3.2 ng/ml (0.01 µM), n = 6
assay endpoint: Stability Bias (%)
Write the number in % without appending the unit.

Previously resolved entries follow.
molecule: CN1[C@H]2CC[C@@H]1[C@@H](C(=O)O)[C@@H](OC(=O)c1ccccc1)C2 [BE, benzoylecgonine]
Stability Bias (%): −0.5
//
molecule: CCOC(=O)[C@H]1[C@@H](O)C[C@@H]2CC[C@H]1N2 [NEEE, norecgonine ethyl ester]
Stability Bias (%): 1.4
//
molecule: CCOC(=O)[C@@H]1C2CCC(C[C@@H]1OC(=O)c1ccccc1)N2C (some centres unmarked) [Cocaethylene, cocaethylene]
Stability Bias (%): 1.7
//
molecule: CCOC(=O)[C@H]1[C@@H](OC(=O)c2ccccc2)C[C@@H]2CC[C@H]1N2 [Norcocaethylene, norcocaethylene]
Stability Bias (%): −0.2

# evaluate next
## Task // query Stability Bias (%) value for entry CCOC(=O)[C@@H]1[C@H]2CC[C@@H](C[C@@H]1O)N2C [EEE, ecgonine ethyl ester]
## Result 1.2

---

- test name: Stability of analytes in whole blood samples
- Format: in vitro ADME, rat
- condition details: Freeze-thaw (4 cycles), medium concentration 95–160 ng/ml (0.5 µM), n = 6
assay endpoint: Stability Bias (%)
Numeric answer only, unit % assumed.

Observe how each entry below is paired with its result.
compound: COC(=O)[C@H]1[C@@H](OC(=O)c2ccccc2)C[C@@H]2CC[C@H]1N2C
Stability Bias (%): −0.7
//
compound: COC(=O)[C@H]1[C@@H](OC(=O)c2ccccc2)C[C@@H]2CC[C@H]1N2
Stability Bias (%): −0.2
//
compound: CCOC(=O)[C@@H]1C2CCC(C[C@@H]1OC(=O)c1ccccc1)N2C (stereo partly drawn)
Stability Bias (%): −3.7

## Task What Stability Bias (%) value was documented for this compound, CCOC(=O)[C@H]1[C@@H](O)C[C@@H]2CC[C@H]1N2 ?
## Result 3.3

## Task For COC(=O)[C@@H]1[C@H]2CC[C@@H](C[C@@H]1O)N2C , what is its reported Stability Bias (%)?
## Result 4.2

---

- test name: Stability of analytes in whole blood samples
- Format: in vitro ADME, rat
- condition details: Freeze-thaw (4 cycles), low concentration 1.9–3.2 ng/ml (0.01 µM), n = 6
assay endpoint: Stability Bias (%)
Please give a number only; it is taken to be in %.

molecule: CCOC(=O)[C@@H]1C2CCC(C[C@@H]1OC(=O)c1ccccc1)N2C (stereo partly drawn) [Cocaethylene, cocaethylene]
Stability Bias (%): 0.7
--
molecule: COC(=O)[C@H]1[C@@H](OC(=O)c2ccccc2)C[C@@H]2CC[C@H]1N2C [Cocaine]
Stability Bias (%): 2.8
--
molecule: COC(=O)[C@H]1[C@@H](OC(=O)c2ccccc2)C[C@@H]2CC[C@H]1N2 [Norcocaine, norcocaine]
Stability Bias (%): −1.0
--
molecule: CCOC(=O)[C@@H]1[C@H]2CC[C@@H](C[C@@H]1O)N2C [EEE, ecgonine ethyl ester]
Stability Bias (%): −3.2
--
molecule: CN1[C@H]2CC[C@@H]1[C@@H](C(=O)O)[C@@H](OC(=O)c1ccccc1)C2 [BE, benzoylecgonine]
Stability Bias (%): −0.9
--
molecule: COC(=O)[C@@H]1[C@H]2CC[C@@H](C[C@@H]1O)N2C [EME, ecgonine methyl ester]
Stability Bias (%): 2.1

## Task // lookup Stability Bias (%) for CCOC(=O)[C@H]1[C@@H](O)C[C@@H]2CC[C@H]1N2 [NEEE, norecgonine ethyl ester]
## Result 1.2

## Task Reported Stability Bias (%), molecule CCOC(=O)[C@H]1[C@@H](OC(=O)c2ccccc2)C[C@@H]2CC[C@H]1N2 [Norcocaethylene, norcocaethylene] : ____
## Result 0.1

## Task So what's the measured Stability Bias (%) for this one? COC(=O)[C@H]1[C@@H](O)C[C@@H]2CC[C@H]1N2 [NEME, norecgonine methyl ester]
## Result −12.8

Data origin, for the record: paper PMC5196007
